compounds and their reported cytotoxicity at 70.5 h
# Assay Summary: Human HepG2 cell viability assay in 384 well format
# Format: toxicity, cell-based
# Design: dose 125 nL, time 70.5 hour; concentration not given beside the values
# Condition: HepG2 cells, read-out: Inhibition
Give the value; after it, write the unit.

Compound	cytotoxicity at 70.5 h
Nc1nc2c(c(NCC(c3cccnc3)N3CCOCC3)n1)CCNC2 (stereo not drawn)	-10.5%
CCn1ncnc1CN(C/C=C/c1ccccc1)CCOC	-1.42%
CN(Cc1ccccc1)c1cnn(CC2COCCO2)c(=O)c1 (stereo not drawn)	-2.99%
CN1CCCC1c1cccc(Cc2ccccc2F)n1 (stereo not drawn)	0.232%

// recorded cytotoxicity at 70.5 h for c1coc(-c2nc(CN3CCn4c(nnc4C4CC4)C3)cs2)c1 : -8.26%

Short answer for COCCNCc1ccc(OCC(=O)NC(C)(C)C)cc1 : cytotoxicity at 70.5 h was 19.6%

So for CCOc1cccc2c1OCC(C(=O)NS(=O)(=O)c1c(C)noc1C)=C2 , the logged cytotoxicity at 70.5 h turned out to be -2.53%

According to the records, this compound CCN(CC)CCn1cc(NC(=O)Nc2ccccc2OC)cn1 displays cytotoxicity at 70.5 h of -11.6%
